runDescription: in vitro
testSettings: human, hela cells, % viability
readoutLabel: viability at 28.5 h, 10 µM (%)
Number in %, nothing else.

Below are worked cases with known answers.
CC(C)[C@H](CO)n1c(=O)[nH]c2ncc(-c3cccc4ccccc34)nc21: 104
COc1ccc2nc(NC(=O)c3cnc(-c4ccc(Cl)cc4)c(-c4cccnc4)c3)sc2c1: 105
O=C(Nc1nnc[nH]1)c1cccnc1Cl: 113
COc1ccc2nc(Nc3nc4ccc(S(C)(=O)=O)cc4s3)sc2c1: 102
CCOc1ccccc1/C=N/Nc1ccccc1[N+](=O)[O-]: 94.7
CN(CCCc1nc(-c2ccc(Cl)cc2)no1)S(=O)(=O)c1ccc([N+](=O)[O-])cc1: 96
O=C(Nc1ccc2n(c1=O)C[C@@H]1CNC[C@H]2C1)c1ccc(F)cc1: 98.4
Cc1nc(-c2ccc(CNS(=O)(=O)c3ccc(Cl)cc3)cc2)ccc1C(N)=O: 90.5

Which viability at 28.5 h, 10 µM is reported for this compound? COc1cccc(NC(=O)N[C@H]2C[C@@H](c3nc(-c4ccccn4)no3)N(C)C2)c1
108

* * *

runDescription: in vitro
testSettings: human, hela cells, % viability
readoutLabel: viability at 28.5 h, 10 µM (%)
Field format: number, assumed %, no unit text.

Request the reported viability at 28.5 h, 10 µM associated with Cc1ccccc1-c1ccccc1CC1(C(N)=O)CCN(C(=O)c2ccccc2)CC1
89.9

* * *

runDescription: in vitro
testSettings: human, hela cells, % viability
readoutLabel: viability at 28.5 h, 10 µM (%)
Kindly provide the numeric value in % only, without the unit symbol.

Some compounds with recorded viability at 28.5 h, 10 µM:
CCOc1ccc(CNc2ccc(N3CCOCC3)c(C(=O)O)c2)cc1OC: 93
O=C1NCCNC(=O)C2(C/C=C/COc3ccccc31)CCN(C(=O)CCC1CCCC1)CC2: 118
COC(C)CN(C)C(=O)c1nnn(-c2ccc3ncccc3c2)c1C (stereo not drawn): 85.8
Cc1nnc(Sc2nc3ccccc3nc2N2CCCC2)s1: 89.1
COc1ccc(Oc2nccnc2N2CCN(CCc3ccccn3)CC2)cc1OC [CBK083067T]: 93.2

Looking for the measured viability at 28.5 h, 10 µM of Cc1[nH]c2ccc(C(=O)O)cc2c1CC(=O)O , can you help?
96.3

Moving on to Cc1ccc(S(=O)(=O)N2CCOCC2)cc1-c1cncc(-c2ccc(O)cc2)n1
103

Please give the result for Cc1c(C(=O)O)sc2c1c(=O)n(Cc1ccccc1)c(=O)n2CCN(C)C too.
95.3

Now this one: COCCN(Cc1cnn(C)c1)Cc1cc(O)c2cc(F)ccc2n1
103

* * *

runDescription: in vitro
testSettings: human, hela cells, % viability
Measured viability at 28.5 h, 10 µM accompanies every entry in the list below.
Enter your answer as a number in %; do not include the unit.

Here are 4 compounds together with their reported answers.
Nc1ccc2c(O)c(C(=O)NCc3ccc(Cl)cc3)c(=O)[nH]c2c1: 91.4
COCC1=C(C(=O)OC)[C@H](c2ccc(F)c(F)c2)N(C(=O)NCCCN2CCC(c3cccc(NC(C)=O)c3)CC2)C(=O)N1 [CBK051451C]: 93.5
Cn1ccnc1C1(O)CC2CCC(C1)N2C(=O)Nc1ccccc1F (centres unmarked): 88.2
CC(=O)NC[C@H]1CN(c2ccc(C3CNC3)c(F)c2)C(=O)O1: 82.8

What value of viability at 28.5 h, 10 µM has been recorded for this entry: O=C(Nc1ccc2ncccc2c1)c1ccc(OC(F)(F)F)cc1
90.9

Same read-out for CC(SCc1ccccc1)C(=O)NCC1CCN(c2ccccc2)C1 (centres unmarked) ?
89.5

Another compound: CN(C)C(=O)n1cc(Cl)c(-c2ccccc2)n1
97

Same question for NS(=O)(=O)c1ccc(NC(=O)c2ccc(COc3ccccc3)o2)cc1 please.
104

What do you get for O=C(c1ccccc1F)N1CCC(c2nnc3n2CCCCC3)CC1 ?
82.2

And for O=C(O)c1ccc2c(c1)c(C(C(=O)O)N1CCCC1)cn2Cc1ccccc1 (centres unmarked) ?
90.1

Subsequent entry: Cn1ncc(Cl)c1C1CCCCCN1S(=O)(=O)c1ccc2[nH]c(=O)[nH]c(=O)c2c1 (centres unmarked)
102

Cool, now CC(Oc1ccc(Cl)cc1Cl)C(=O)Nc1ccc(N2CCN(C)CC2)c(Cl)c1 (centres unmarked)
85

* * *

Measured viability at 28.5 h, 10 µM accompanies every entry in the list below.
runDescription: in vitro
testSettings: human, hela cells, % viability
Express it in %; write the number only.

For orientation, consider the following solved cases.
COc1cc(Cl)cc(CNCCO)c1OC(C)C [CBK269196C]: 86.7
COc1cc(CNc2cncc(-c3cccc(C(=O)NCCO)c3)n2)cc(OC)c1OC [CBK065421]: 98.5

Would you kindly share the measured viability at 28.5 h, 10 µM for CCOc1ccc(-c2nc(CSc3n[nH]c(=O)n3Cc3ccccc3)cs2)cc1 [CBK296737] ?
102

Please do the same for COC(=O)Nc1ccc(S(=O)(=O)N2CCCC(C(=O)Nc3cccc(C(F)(F)F)c3)C2)cc1 (stereo not drawn) [CBK265248] as well.
92.3

Now try CCOc1ccc2nc(NS(=O)(=O)c3cc(C(=O)O)c(Cl)cc3Cl)sc2c1 [CBK299789] .
109

What would you report for Cc1ccc(S(=O)(=O)CCC(=O)Nc2ccc3sc(C)nc3c2)cc1 [CBK287706] ?
99.3

Moving on to CC(C)(C)OC(=O)N1CCC(c2nc(-c3cccnc3)no2)CC1 [CBK304332]
84.6

What do you get for CC(C)C(c1nnnn1Cc1ccccc1)N1CCOCC1 (stereo not drawn) [CBK028054] ?
117

# repeat for CN(C)CCN1CCN(c2cncc(-c3cccnc3)n2)CC1 [CBK065416]
93.2

* * *

runDescription: in vitro
testSettings: human, hela cells, % viability
Collected viability at 28.5 h, 10 µM values appear next to each entry.
State the answer as a number, implicitly in %.

Example entries begin here.
Clc1ccc(CN2CCN(c3nccnc3OCCN3CCOCC3)CC2)cc1 [CBK082887T]: 97.4
Cc1ccc(C#N)cc1S(=O)(=O)NC(=O)COCC1CC1: 113
CCOC(=O)CSc1nc2ccccc2c(=O)n1Cc1ccccc1: 95.4

Given the molecule Cc1[nH]c2ccccc2c1C(=O)CCC(=O)O , what is its reported viability at 28.5 h, 10 µM?
95.5

CN1CCN(Cc2ccccc2[N+](=O)[O-])CC1 , same question.
85.5

Same question, O=S(=O)(Nc1nnn[nH]1)c1ccc(Br)cc1C(F)(F)F this time
104

Lookup CCCC(=O)N[C@@H](Cn1c(=O)oc2ccccc21)C(C)C
91.2

How about this molecule: O=C(Oc1ccccc1)c1cc(Cl)cnc1Cl
101

// query: Cc1nc2ccc(NC(=S)N3c4ccccc4CC3C)cc2nc1C (stereo not shown)
62.5

Please answer likewise for COc1ccc(Cc2nnc(Nc3ccc(OC)cc3)[nH]c2=O)cc1
92.9

* * *

runDescription: in vitro
testSettings: human, hela cells, % viability
Under this convention, 1 denotes viability at 28.5 h, 10 µM strictly below 90% and -1 denotes viability at 28.5 h, 10 µM at or above 90%.

Reference set, count: 2
O=C(CC(NC1CCCC1)C(=O)O)Nc1ccc(F)cc1 (centres unmarked): -1
Cc1ccc(S(=O)(=O)NCC(c2ccccc2)N2CCN(CCC#N)CC2)cc1 (centres unmarked): -1

Please state whether viability at 28.5 h, 10 µM is below 90% for COC(=O)c1cn(C(=O)COc2ccc(Cl)cc2)c2ccccc12
1

Let us now turn to O=C(O)[C@H]1CN(C(=O)c2cccs2)C[C@@H]1c1ccccc1F
1

Try this molecule next: O=C(NCCOc1ccc(-c2ccc(F)cc2)nn1)c1ccc(Br)o1
1

// repeat for Cn1cc(CN[C@@H]2CCC(=O)N[C@H]2c2cc(F)cc(F)c2)cn1 and report
-1

Try COc1cc2cc3c(N)c(C(=O)N4CCCc5ccccc54)sc3nc2cc1OC next.
-1

Ok, now O=S(=O)(O)CCCSc1nc2ccccc2s1 [CBK260900N]
-1

CC(CC(=O)NCC1(C)COC1)n1cnc2ccccc21 (centres unmarked) , same question.
1

# repeat for Cc1cc(NS(=O)(=O)c2ccc(Nc3nc(-c4ccc(Cl)cc4Cl)cs3)cc2)no1
-1

Here is the next molecule: CCSC1=C(C#N)C(=O)NC(c2ccccc2O)S1 (centres unmarked)
-1

Thanks! And CCn1c(=O)n(CCC(N)=O)c2cc(S(=O)(=O)N(C)C)ccc21 ?
-1

Now the same for Cc1ccc(C(=O)/C=C(\Nc2cccc(C(F)(F)F)c2)C(=O)O)cc1
-1

Repeat with CC1(C)COC(CCN2CCN(c3ccc(F)cc3)CC2)c2ccccc21 (centres unmarked) [CBK024080C]
-1

And Cc1cc(C)n(C(C(=O)NCC2(C)COC2)C(C)C)n1 (centres unmarked) ?
1

Further, for O=C(C1=C(O)C(=O)N(CCCN2CCOCC2)C1c1cccnc1)c1cc2ccccc2o1 (centres unmarked) ?
-1

Item: CN(c1cccc(NS(=O)(=O)c2ccc3ccccc3c2)c1)S(C)(=O)=O
1

And the next one, O=C1CCc2cccc(OCCO)c21 ?
-1

Another molecule to look at: O=C(O)C1CCCCN1Cc1ccccc1 (centres unmarked)
-1

Again, but for CC(C)CCN1CCC2CN(CCCC(c3ccc(F)cc3)c3ccc(F)cc3)CCN2C1=O (centres unmarked) [CBK024898C]
-1

Thanks! And O=C(c1ccc2c(c1)CCO2)N1CCC(S(=O)(=O)c2ccc(-c3ccccc3)cc2)CC1 ?
-1
